Where do the numbers come from? From patent US20100261620A1.

# Target system: IL-13 (Homo sapiens (Human), UniProt P35225 35-146, limits assumed)
# Sequence (P35225 35-146 limits assumed): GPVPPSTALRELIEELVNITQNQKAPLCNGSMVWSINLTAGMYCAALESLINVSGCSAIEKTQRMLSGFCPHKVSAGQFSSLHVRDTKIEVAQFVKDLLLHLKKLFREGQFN
# Measurement notes: Biacore
Outcome measure: koff (s⁻¹)
One number for each entry, in s⁻¹.

Example results:
INSERT INTO results (binder, unit_annotation, observed_value) VALUES
  ('M460 (anti-IL-13) (antibody, V domains shown) VH: QVTLKESGPVLVKPTETLTLTCTVSGFSLSTYGMGVGWIRQPPGKALEWLAHIWWDDVKRYNPALKSRLTISKDTSKSQVVLTMTNMDPVDTATYYCARMGSDYDVWFDYWGQGTLVTVSS VL: EIVLTQSPATLSLSPGERATLSCRASKSISKYLAWYQQKPGQAPRLLIYSGSTLQSGIPARFSGSGSGTDFTLTISSLEPEDFAVYYCQQHDYPYTFGQGTKLEIK', 's⁻¹', '8e-06'),
  ('M448 (antibody, V domains shown, anti-IL-13, human IgG1) VH: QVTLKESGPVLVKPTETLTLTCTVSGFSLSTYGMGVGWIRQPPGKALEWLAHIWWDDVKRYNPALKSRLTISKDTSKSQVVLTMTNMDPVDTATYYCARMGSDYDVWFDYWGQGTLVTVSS VL: EIVLTQSPATLSLSPGERATLSCRASKSISKYLAWYQQKPGQAPRLLIYSGSTLQSGIPARFSGSGSGTDFTLTISSLEPEDFAVYYCQQHSHGPYTFGQGTKLEIK', 's⁻¹', 0.000127),
  ('M471 (antibody, V domains shown, anti-IL-13, human IgG1) VH: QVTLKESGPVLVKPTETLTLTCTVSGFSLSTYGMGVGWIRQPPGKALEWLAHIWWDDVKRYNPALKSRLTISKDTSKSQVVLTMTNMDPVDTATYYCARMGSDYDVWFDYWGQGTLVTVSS VL: EIVLTQSPATLSLSPGERATLSCRASKSISKYLAWYQQKPGQAPRLLIYSGSTLQSGIPARFSGSGSGTDFTLTISSLEPEDFAVYYCQQPIDAPYTFGQGTKLEIK', 's⁻¹', 0.000364),
  ('M1295 (antibody, V domains shown) VH: QVTLKESGPVLVKPTETLTLTCTVSGFSLSTYGVGVGWIRQPPGKALEWLAHIWWDDVKRYNPALKSRLTISKDTSKSQVVLTMTNMDPVDTATYYCARLGSDYDVWFDYWGQGTLVTVSS VL: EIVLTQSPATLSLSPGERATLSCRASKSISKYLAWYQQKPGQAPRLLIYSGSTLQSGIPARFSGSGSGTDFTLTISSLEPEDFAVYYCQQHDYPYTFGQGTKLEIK', 's⁻¹', '1.8e-05'),
  ('M1292 (antibody, V domains shown) VH: QVTLKESGPVLVKPTETLTLTCTVSGFSLSTYGEGVGWIRQPPGKALEWLAHIWWDDVKRYNPALKSRLTISKDTSKSQVVLTMTNMDPVDTATYYCARLGSDYDVWFDYWGQGTLVTVSS VL: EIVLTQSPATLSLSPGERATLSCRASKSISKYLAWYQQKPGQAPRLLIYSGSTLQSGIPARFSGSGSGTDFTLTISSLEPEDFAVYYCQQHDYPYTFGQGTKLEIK', 's⁻¹', '8e-06'),
  ('M461 (antibody, V domains shown, anti-IL-13, human IgG1) VH: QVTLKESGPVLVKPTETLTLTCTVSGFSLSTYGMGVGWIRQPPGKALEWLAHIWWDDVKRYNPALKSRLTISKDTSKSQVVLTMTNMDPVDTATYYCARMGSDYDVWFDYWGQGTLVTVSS VL: EIVLTQSPATLSLSPGERATLSCRASKSISKYLAWYQQKPGQAPRLLIYSGSTLQSGIPARFSGSGSGTDFTLTISSLEPEDFAVYYCQQHSIGPYTFGQGTKLEIK', 's⁻¹', 0.000257),
  ('M478 (antibody, V domains shown, anti-IL-13, human IgG1) VH: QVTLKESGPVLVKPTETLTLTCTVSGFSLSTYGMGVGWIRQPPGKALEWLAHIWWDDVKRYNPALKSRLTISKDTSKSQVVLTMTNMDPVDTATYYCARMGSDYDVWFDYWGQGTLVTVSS VL: EIVLTQSPATLSLSPGERATLSCRASKSISKYLAWYQQKPGQAPRLLIYSGSTLQSGIPARFSGSGSGTDFTLTISSLEPEDFAVYYCQQHNHGPYTFGQGTKLEIK', 's⁻¹', 0.000247),
  ('M450 (antibody, V domains shown, anti-IL-13, human IgG1) VH: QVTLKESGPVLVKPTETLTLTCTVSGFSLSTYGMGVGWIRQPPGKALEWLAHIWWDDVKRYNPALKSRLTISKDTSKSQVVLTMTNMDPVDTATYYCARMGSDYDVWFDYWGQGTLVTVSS VL: EIVLTQSPATLSLSPGERATLSCRASKSISKYLAWYQQKPGQAPRLLIYSGSTLQSGIPARFSGSGSGTDFTLTISSLEPEDFAVYYCQQHDPGPYTFGQGTKLEIK', 's⁻¹', 0.000107);

Look at each binder and report its koff.
1. M462 (antibody, V domains shown, anti-IL-13, human IgG1) VH: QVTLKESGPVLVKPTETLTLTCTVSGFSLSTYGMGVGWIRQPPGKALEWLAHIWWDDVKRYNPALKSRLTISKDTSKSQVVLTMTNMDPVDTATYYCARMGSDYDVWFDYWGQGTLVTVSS VL: EIVLTQSPATLSLSPGERATLSCRASKSISKYLAWYQQKPGQAPRLLIYSGSTLQSGIPARFSGSGSGTDFTLTISSLEPEDFAVYYCQQHNFGPYTFGQGTKLEIK
2. M452 (antibody, V domains shown, anti-IL-13, human IgG1) VH: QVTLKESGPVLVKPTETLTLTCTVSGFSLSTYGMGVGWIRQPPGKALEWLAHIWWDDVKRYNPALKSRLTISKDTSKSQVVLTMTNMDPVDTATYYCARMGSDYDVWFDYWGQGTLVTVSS VL: EIVLTQSPATLSLSPGERATLSCRASKSISKYLAWYQQKPGQAPRLLIYSGSTLQSGIPARFSGSGSGTDFTLTISSLEPEDFAVYYCQQHLNGPYTFGQGTKLEIK

Response given:
0.000417
0.00027
